The following binders are listed with their measured OD450 ratio sample/blank values.
# SUBJECT_OF_TEST: soluble IL-6R in cynomolgous plasma (cynomolgus monkey, UniProt A0A2K5WN54)
# METHOD_SUMMARY: ELISA 2, periplasmic extract; competitor IL-6; cyno plasma
Lab note: write the figure by itself, no unit.

{"columns": ["BINDER", "RESULT_NUMBER"],
 "data": [
  ["IL6RPMP101C3 (VHH) VHH: EVQLVESGGGLVRAGGSLRLSCAASGFAFDDYAIGWFRQAPGKEREGVSSISSSNGNTYYADSVRGRFTISSDNAKNTVYLQMNSLKPEDTGVYYCAAIWGIFFNEKMPVGAYDYWGQGTQVTVSS", 0.801],
  ["IL6RPMP103C4 (VHH) VHH: EVQLVESGGGLVEAGGSLRLSCAAAGRTLSSYSMAWFRQAPGKEREFVAIIRGNPSRTYHSDSVKGRFTASRDNAKNTVYLQMNRLEPEDTAVYYCAADPPPFASDYSAPQSYDYWGQGTQVTVSS", 0.0819],
  ["IL6RPMP102G3 (VHH) VHH: EVQLVESGGGLVQAGGSLRLSCAASGSIDRINAMGWYRQAPGKQRDFLAVITDGDKTLYADSVKGRFTISNDNAKNTVYLQMNSLKPEDTAVYYCNAYQAGWGDYWGQGTQVTVSS", 1.32]
]}

**Q:** Given the entry IL6RPMP105E1 (VHH) VHH: EVQLVESGGGLVQAGGSLRLSCAASGSIFSIKAMGWYRQAPGKQRELVARITSGGSTYYADSVKGRFTISRDNAKNTVYLQMNSLKPEDTAVFYCNAIVTDSDYDLGNDYWGQGTQVTVSS , report its measured OD450 ratio sample/blank.
**A:** 0.0402
